Biological target: CYP3A4 (Homo sapiens)
Sequence (P08684 whole entry): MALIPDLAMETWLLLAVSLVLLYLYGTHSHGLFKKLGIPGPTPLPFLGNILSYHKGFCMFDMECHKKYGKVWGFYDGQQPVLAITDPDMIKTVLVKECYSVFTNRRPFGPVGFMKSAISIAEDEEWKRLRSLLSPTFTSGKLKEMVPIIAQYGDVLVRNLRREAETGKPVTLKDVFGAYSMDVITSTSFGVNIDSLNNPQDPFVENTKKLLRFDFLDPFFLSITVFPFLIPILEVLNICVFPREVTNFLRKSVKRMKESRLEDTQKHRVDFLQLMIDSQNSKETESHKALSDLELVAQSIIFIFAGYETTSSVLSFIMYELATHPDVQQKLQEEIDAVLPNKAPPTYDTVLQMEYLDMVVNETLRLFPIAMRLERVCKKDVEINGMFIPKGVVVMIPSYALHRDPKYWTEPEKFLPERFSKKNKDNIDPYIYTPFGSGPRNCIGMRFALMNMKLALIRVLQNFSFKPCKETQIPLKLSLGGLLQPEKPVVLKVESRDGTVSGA
Test: Inhibition of CYP3A4 supersome-mediated EET biosynthesis
Format: biochemical
Conditions: CYP3A4 supersomes, read-out: IC50 for inhibition of EET synthesis
Procedure: Poziotinib was purchased from a commercial source (Selleck Chem catalog number S7358). Assays were conducted using standard techniques that are known in the literature including those described in US Patent Publication U.S. 2015/0342909. Poziotinib was tested for inhibition of proliferation of the MCF-7 (HER2 negative) cell line in complete media. The IC50 for inhibition of growth was determined to be approximately 3 μM (FIG. 1). […]
pIC50: −log10 of the molar value.
readout.kind: pIC50

Short answer for C=CC(=O)N1CCC(Oc2cc3c(Nc4ccc(Cl)c(Cl)c4F)ncnc3cc2OC)CC1 [Poziotinib] : pIC50 was ~5.00
